# assayed system: T1, human neurotensin receptor type 1 (hNTS1R), stably expressed in CHO cells (human, UniProt P30989 1-418)
# T1 construct: human neurotensin receptor type 1 (hNTS1R), wild type, stably expressed in Chinese hamster ovary cells; also called CHO-hNTS1R cells; CHO-NTS1R cells; source: CHO cells stably expressing hNTS1R; intact adherent cells, intact suspended cells and membrane preparations
# T1 sequence (P30989 whole entry): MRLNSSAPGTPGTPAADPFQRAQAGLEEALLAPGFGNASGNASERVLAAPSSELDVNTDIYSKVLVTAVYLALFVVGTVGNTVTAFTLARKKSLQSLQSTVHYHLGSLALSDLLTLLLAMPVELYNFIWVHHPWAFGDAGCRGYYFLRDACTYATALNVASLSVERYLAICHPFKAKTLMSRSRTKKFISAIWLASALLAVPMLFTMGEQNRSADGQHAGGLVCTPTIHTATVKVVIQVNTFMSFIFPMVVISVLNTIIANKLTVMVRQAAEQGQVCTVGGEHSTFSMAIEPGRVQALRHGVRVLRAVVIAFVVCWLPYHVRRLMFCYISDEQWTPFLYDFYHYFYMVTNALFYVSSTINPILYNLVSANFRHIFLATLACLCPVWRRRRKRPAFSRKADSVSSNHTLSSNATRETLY
# test name: flow cytometry on cells; association (1 nM ligand) and dissociation (10 nM preincubation, started with ca. 25 μM NT(8–13)) at intact suspended CHO-hNTS1R cells, 5 mL tubes, DPBS1, 23 ± 1 °C; kon and Kd(kin) calculated
# assay conditions: one partner purified
reported metric: Kd (nM)
Write it as a number; the unit nM goes unstated.

QUERY: State the recorded Kd for this entry: XPRRPYIL (N-terminus: 5-TAMRA attached through a 3-(1H-1,2,3-triazol-4-yl)propanoyl group; position 6 (X) = 2-(piperidin-4-yl)-Gly (pipGly); Arg8 = N^ω-[(4-(N-propanoyl)aminobutyl)aminocarbonyl]Arg) [5-TAMRA-labeled, propionylated NT(6–13) derivative 13 (UR-FE051)]
RESULT: 0.041
